- Tested on: SF-539 CNS
- assay.notes: NCI tumour cell line growth inhibition, 48 h; in the data active means GI50 below about 0.43 µM; inactive means the rest
Your response should consist of one outcome taken from yes (1) = active, no (0) = inactive

molecule	cat
c1cnc2[nH]cc(-c3csc(-c4cn(CCCCN5CCOCC5)c5ccccc45)n3)c2c1	no (0)
COC(=O)CNC(=O)[C@@H](OC)[C@@H]1Cc2cc3cc(OC4CC(OC5CC(O)C(O)C(C)O5)C(O)C(C)O4)c(C)c(O)c3c(O)c2C(=O)[C@H]1OC1CC(OC2CC(OC3CC(C)(O)C(O)C(C)O3)C(O)C(C)O2)C(O)C(C)O1 (stereo partly drawn)	yes (1)
ClCc1c(Cl)c(Cl)c(Cl)c(CCl)c1Cl	no (0)
CN(CCOc1ccc(C#N)cc1)CCOc1ccc(C#N)cc1	no (0)
CCOP(=O)(OCC)C(NC(c1ccccc1)c1ccccc1)c1cccc2ccccc12 (stereo not drawn)	no (0)
CCCCN(Cc1ccc(F)cc1)c1ccc(CO)c(Cl)c1	no (0)
COc1ccc(-c2cn(-c3ccccc3)c(-c3ccccc3)n2)cc1OC	no (0)

Attention now turns to another entry.
Call for entry `C#CC[C@@H]1C[C@]2(C)[C@H]3CC=C4[C@H]5CC(C)(C)CC[C@]5(C(=O)NCCCCN)CC[C@@]4(C)[C@]3(C)CC[C@H]2C(C)(C)[C@H]1OC(C)=O` :
no (0)

###

Reported TGI values for a set of molecules
- System: SNB-19 CNS
- assay.notes: NCI tumour cell line growth inhibition, 48 h

Below: 8 molecules and their reported TGI.
molecule	target.entity	TGI
COc1cc(/C=C/C(=O)c2sc(Nc3ccccc3)nc2C)ccc1O	SNB-19 CNS	> 100 µM
Cc1cccc(C(C)C)c1NC(=O)C(=O)CC(=O)c1c(C)n([O-])c2ccccc2[n+]1=O	SNB-19 CNS	> 100 µM
Cc1cccc(NC(=S)Nc2ccccc2Cl)n1	SNB-19 CNS	97.5 µM
COc1ccc(NC(=O)c2cc(OC)c(OC)c(OC)c2)cc1	SNB-19 CNS	> 100 µM
CC(=O)[O-].CC(=O)[O-].[NH2-].[Pt+2].c1ccc2cnccc2c1	SNB-19 CNS	> 100 µM
O=C(CCl)N1c2ccccc2Sc2c1ccc1ccccc21	SNB-19 CNS	15.1 µM
CC(=O)Nc1ccc2c3c(cc(O)c2c1)N(C(=O)CCCCC(=O)Nc1ccc2c4c(cc(O)c2c1)N(C(=O)OC(C)(C)C)CC4CCl)CC3CCl (stereo not given)	SNB-19 CNS	> 29.5 µM
O=C1C(Cl)=C(Nc2cccc(O)c2)C(=O)N1c1cc(Cl)c(Cl)cc1Cl	SNB-19 CNS	45.5 µM

// TGI lookup, key: `Nc1cc(N)c(N)cc1N`
14.3 µM

// TGI lookup, key: C[C@@H]1COCCN1c1cc(C2(S(C)(=N)=O)CC2)nc(-c2ccnc3[nH]ccc23)n1 (stereo not given in full)
42.2 µM

###

- Test system: CAKI-1 renal
- assay.notes: NCI tumour cell line growth inhibition, 48 h
Reported TGI values for a set of compounds

compound	readout.value
COc1cc[nH]c1/C=C1\C(=O)Nc2ccc(F)c(I)c21	> 25 µM

// TGI lookup, key: `Cc1cccc(C(C)C)c1NC(=O)C(=O)CC(=O)c1c(C)n([O-])c2ccccc2[n+]1=O`
> 100 µM

// TGI lookup, key: `C=CC[C@H]1[C@H](O[Si](C)(C)C(C)(C)C)C=CC(=O)[C@@H]1CC(=O)N(Cc1ccccc1)Cc1ccccc1`
90.2 µM

// TGI lookup, key: `COCc1cc2c(cc1/C=C/[N+](=O)[O-])OCO2`
34.2 µM

###

- Tested on: SK-OV-3 ovarian
- assay.notes: NCI tumour cell line growth inhibition, 48 h
measured.parameter: TGI

Below: 5 compounds and their reported TGI.
compound	TGI
CC12Cc3cc4c(cc3C1(c1ccc([N+](=O)[O-])cc1)OCCO2)OCO4 (stereo not drawn)	47.6 µM
C=C1CC[C@@H]2[C@](C)(COC(C)=O)[C@H](OC(C)=O)CC[C@@]2(C)[C@@H]1CC(Nc1ccc(S(=O)(=O)Nc2nccc(C)n2)cc1)C1=CCOC1=O (stereo partly drawn)	25.3 µM
CC(=O)OCC1=C(C)C(OC(=O)C(OC(C)=O)[C@@H](NC(=O)c2ccccc2)c2ccccc2)CCC1(C)C (stereo partly drawn)	> 100 µM
CC(C)C[P+](c1ccccc1)(c1ccccc1)c1ccccc1	87.4 µM
COc1cccc(NC(=O)CC(=O)N2N=C(C)C(N=Nc3ccc(S(=O)(=O)c4ccc(N=NC5C(=O)N(C(=O)CC(=O)Nc6cccc(OC)c6)N=C5C)cc4)cc3)C2=O)c1 (stereo not drawn)	> 100 µM

// TGI lookup, key: CCC(CCCC[C@@H]1CC[C@H]2CC(=O)C[C@@H]12)OC (stereo partly drawn)
> 100 µM

// TGI lookup, key: `Cc1cccc(C(C)C)c1NC(=O)C(=O)CC(=O)c1c(C)n([O-])c2ccccc2[n+]1=O`
> 100 µM

// TGI lookup, key: `Cc1ccc2c(n1)C(=O)c1ccccc1C2=O`
> 100 µM

###

- System: MDA-MB-435
- assay.notes: NCI tumour cell line growth inhibition, 48 h
Reported TGI values for a set of molecules

Below: 5 molecules and their reported TGI.
molecule	TGI
Cc1ccc(C(O)c2cnc(C)n2Cc2ccccc2)cc1 (stereo unspecified)	> 100 µM
CC(=O)[O-].CC(=O)[O-].[NH2-].[Pt+2].c1ccc2cnccc2c1	> 100 µM
Brc1ccc2[nH]cc(-c3nc(-c4c[nH]c5ccccc45)cs3)c2c1	13.3 µM
COc1cc(-c2cn(-c3ccc(Cl)cc3)c(C)c2C(=O)C(F)(F)F)cc(OC)c1OC	> 100 µM
CN(CCOc1ccc(C#N)cc1)CCOc1ccc(C#N)cc1	> 100 µM

API: the following record is the query input.
// TGI lookup, key: `Cc1cn(Cc2ccccc2CCl)c(=O)[nH]c1=O`
29 µM

###

- Tested on: OVCAR-3 ovarian
- assay.notes: NCI tumour cell line growth inhibition, 48 h
measured.parameter: TGI

Below: 5 compounds and their reported TGI.
compound	target.entity	TGI
CCO/N=[N+](\[O-])N(CC)CC	OVCAR-3 ovarian	> 100 µM
CC1C(=O)C(C)C(c2ccccc2)N(N=O)C1c1ccccc1 (stereo unspecified)	OVCAR-3 ovarian	685 µM
Cc1cccc(NC(=S)N=Nc2c(O)[nH]c3ccccc23)c1	OVCAR-3 ovarian	> 100 µM
COc1ccc(CC2NC(=O)/C=C/CC(C(C)C3OC3c3ccccc3)OC(=O)C(CC(C)C)OC(=O)C(C)CNC2=O)cc1Cl (stereo unspecified)	OVCAR-3 ovarian	0.000584 µM
COc1cccc(NC(=O)CC(=O)N2N=C(C)C(N=Nc3ccc(S(=O)(=O)c4ccc(N=NC5C(=O)N(C(=O)CC(=O)Nc6cccc(OC)c6)N=C5C)cc4)cc3)C2=O)c1 (stereo unspecified)	OVCAR-3 ovarian	> 100 µM

API: the following record is the query input.
Under OVCAR-3 ovarian: TGI value of O=C(CC(C(=O)c1ccoc1)c1ccco1)c1ccco1 (stereo unspecified) ?
> 100 µM

###

- Test system: HOP-62 NSCLC
- assay.notes: NCI tumour cell line growth inhibition, 48 h
Reported TGI values for a set of compounds

Below: 8 compounds and their reported TGI.
compound	TGI
Cc1ccc(S(N)(=O)=O)cc1	> 1000 µM
COc1cccc(C2c3cc4c(cc3OC(O)(CO)C2C(=O)O)OCO4)c1 (configuration not stated) (tested in a mixture with another compound)	> 100 µM
COc1ccc(CC(C)N)cc1 (configuration not stated)	> 100 µM
COC(=O)c1csc(-c2nc(CCNC(=O)OC(C)(C)C)sc2Br)n1	> 100 µM
Brc1ccc2[nH]cc(-c3nc(-c4c[nH]c5ccccc45)cs3)c2c1	21.7 µM
Cn1ccnc1C(=O)/C=C/c1ccc(CC(=O)Nc2ccccc2)cc1	20.8 µM
Cc1cn(Cc2ccccc2CCl)c(=O)[nH]c1=O	35.3 µM
CC(=O)NC1=C(C)C(=O)c2c(nc3n2CCC3O)C1=N (configuration not stated)	> 100 µM

// TGI lookup, key: `CC(=O)Nc1ccc2[nH]c(-c3cccc(F)c3)cc(=O)c2c1`
> 48.4 µM

// TGI lookup, key: `Cc1nc2ccccc2c(=O)[nH]1`
> 100 µM

// TGI lookup, key: `O=c1[nH]nc(Cc2ccccc2)n1Nc1ccccc1`
> 100 µM

// TGI lookup, key: `CC1S(=O)(=O)OCCOS1(=O)=O`
> 100 µM

###

- Tested on: OVCAR-4 ovarian
- assay.notes: NCI tumour cell line growth inhibition, 48 h
measured.parameter: TGI

Below: 3 compounds and their reported TGI.
compound	TGI
Brc1ccccc1-c1ncc(-c2ccccc2)o1	> 100 µM
CC(C)=CCC/C(C)=C/CC/C(C)=C/CC/C(C)=C/CC/C(C)=C\CC/C(C)=C/CC/C(C)=C/CC/C(C)=C/Cc1cc(O)ccc1O	7.4 µM
CCCCOC(=O)C(O)Cc1ccoc1 (stereo not given)	> 100 µM

// TGI lookup, key: `Nc1nc2c(c(=O)[nH]1)CN(c1ccc(S(N)(=O)=O)cc1)CN2`
> 100 µM

// TGI lookup, key: `CCOC(=O)C(=O)Nc1c(C)cccc1C`
> 100 µM

// TGI lookup, key: C=C1C(=O)OC2C1CC(O)/C(C)=C\CCC1(C)OC21 (stereo not given)
> 100 µM

// TGI lookup, key: Cc1cc2c(c(C=NCc3ccccc3)c1)OC1(C=C2)Oc2ccccc2C(=O)N1C (stereo not given)
69.9 µM

// TGI lookup, key: COc1cccc(NC(=O)CC(=O)N2N=C(C)C(N=Nc3ccc(S(=O)(=O)c4ccc(N=NC5C(=O)N(C(=O)CC(=O)Nc6cccc(OC)c6)N=C5C)cc4)cc3)C2=O)c1 (stereo not given)
> 100 µM

// TGI lookup, key: `c1ccc(CSc2nc(N3CCOCC3)c3cn[nH]c3n2)cc1`
> 100 µM

// TGI lookup, key: `COc1ccc2c3c(c(=O)n(C)c2c1OC)C=CC(C)(C)O3`
41.3 µM
